protocol-summary: Pharmacokinetics after repeated oral administration of 250 μg/kg and 35 μg/kg of fluralaner in dogs after feeding
Assay type: in vivo, beagle dogs
conditions: beagle, dog, plasma, po, 384 h; oral 250 μg/kg Days 0-3, 35 μg/kg Days 4-9, 600 μg/kg Day 11, dogs; read-out: fluralaner concentration levels, individual animal
observable: concentration at 384 h (µg/mL)
The reply should be a number in µg/mL, with the unit left off.

In: What value of concentration at 384 h has been recorded for this entry: Cc1cc(C2=NOC(c3cc(Cl)cc(Cl)c3)(C(F)(F)F)C2)ccc1C(=O)NCC(=O)NCC(F)(F)F (stereo not shown)
Out: 0.561
